- Target system: Human recombinant sEH (Homo sapiens)
- Experiment description: sEH cell-free fluorescence-based assay (PHOME substrate)
- Measurement conditions: cell-free assay, human sEH; means ± SEM, n = 3
The molecules listed here are annotated with their pIC50.
The scale used: pIC50 is minus the common logarithm of the concentration in molar units.

Entry "CC(C)(C)CNC(=O)c1ccc2c(=O)[nH]c(SCc3ccccc3OC(F)(F)F)nc2c1" — recorded pIC50 = 6.40

Entry "CC(C)(C)CNC(=O)c1ccc2c(=O)[nH]c(SCc3ccccc3C(F)(F)F)nc2c1" — recorded pIC50 = 6.30

Entry "Cc1ccccc1CSc1nc2cc(C(=O)NCC(C)(C)C)ccc2c(=O)[nH]1" — recorded pIC50 = 5.92

Entry "CC(C)CNC(=O)c1ccc2c(=O)[nH]c(SCc3ccc(C(F)(F)F)cc3)nc2c1" — recorded pIC50 = 5.82

Entry "CC(C)(C)CNC(=O)c1ccc2c(=O)[nH]c(SCc3ccc(Cl)c(Cl)c3)nc2c1" — recorded pIC50 = 5.80

Entry "CC(C)CNC(=O)c1ccc2c(=O)n(-c3ccccc3)c(SCc3ccc(C(F)(F)F)cc3)nc2c1" — recorded pIC50 = 5.35

Entry "CC(C)(C)CNC(=O)c1ccc2c(=O)[nH]c(SCc3ccccc3F)nc2c1" — recorded pIC50 = 5.89

* * *

The compounds listed here are annotated with their melting point.

Example compounds with recorded melting point:
Mol smiles	Reading
CC(C)(C)CNC(=O)c1ccc2c(=O)[nH]c(SCc3cccc(Cl)c3)nc2c1	217.1 to 218.4 °C
O=C(c1ccc2c(=O)[nH]c(SCc3ccccc3Cl)nc2c1)N1CCNCC1	159.9 to 162 °C
Cc1ccccc1CSc1nc2cc(C(=O)NCC(C)(C)C)ccc2c(=O)[nH]1	207.4 to 209.4 °C
Cc1ncccc1CSc1nc2cc(C(=O)NCC(C)(C)C)ccc2c(=O)[nH]1	202.3 to 203.8 °C
O=C(c1ccc2c(=O)[nH]c(SCc3ccccc3Cl)nc2c1)N1CCCCC1	175.6 to 177.2 °C

Entry "CC(C)(C)CNC(=O)c1ccc2c(=O)[nH]c(SCc3ccccc3C(F)(F)F)nc2c1" — recorded melting point = 217.9 to 219.3 °C

Entry "O=C(c1ccc2c(=O)[nH]c(SCc3ccccc3Cl)nc2c1)N1CCOCC1" — recorded melting point = 198.6 to 200.4 °C

Entry "CC(C)(C)CNC(=O)c1ccc2c(=O)[nH]c(SCc3ccccc3C#N)nc2c1" — recorded melting point = 190.3 to 192.2 °C

* * *

- Target system: Human recombinant sEH (Homo sapiens, UniProt P34913)
- Sequence (P34913 whole entry): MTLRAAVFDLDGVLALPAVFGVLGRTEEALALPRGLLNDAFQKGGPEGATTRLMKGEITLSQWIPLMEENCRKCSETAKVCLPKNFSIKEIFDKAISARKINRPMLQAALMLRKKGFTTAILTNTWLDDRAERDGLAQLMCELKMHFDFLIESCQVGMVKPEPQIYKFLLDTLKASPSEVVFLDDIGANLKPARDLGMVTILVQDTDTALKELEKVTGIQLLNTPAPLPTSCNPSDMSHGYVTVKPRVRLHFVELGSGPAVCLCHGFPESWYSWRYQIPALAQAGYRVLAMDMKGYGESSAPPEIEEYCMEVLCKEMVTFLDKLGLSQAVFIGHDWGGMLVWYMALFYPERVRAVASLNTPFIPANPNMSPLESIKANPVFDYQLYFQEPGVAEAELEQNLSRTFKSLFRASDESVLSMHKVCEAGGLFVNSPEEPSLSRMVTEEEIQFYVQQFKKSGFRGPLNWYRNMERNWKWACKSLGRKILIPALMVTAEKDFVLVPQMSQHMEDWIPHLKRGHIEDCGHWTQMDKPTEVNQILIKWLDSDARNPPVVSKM
- Experiment description: sEH cell-free fluorescence-based assay (PHOME substrate)
- Measurement conditions: cell-free assay, human sEH; means ± SEM, n = 3
Reported property: IC50

Example compounds with recorded IC50:
Mol smiles	Reading
CC(C)NC(=O)c1ccc2c(=O)[nH]c(SCc3ccccc3Cl)nc2c1	> 10 µM
COC(=O)c1cccc(CSc2nc3cc(C(=O)NCC(C)(C)C)ccc3c(=O)[nH]2)c1	> 10 µM

Known value: Human recombinant sEH (Homo sapiens, UniProt P34913) IC50 of the compound "O=C(c1ccc2c(=O)[nH]c(SCc3ccccc3Cl)nc2c1)N1CCOCC1" equals > 10 µM

* * *

The molecules listed here are annotated with their melting point.

Example molecules with recorded melting point:
Molecule	Reported property	Reading
CC(C)NC(=O)c1ccc2c(=O)n(-c3ccccc3)c(SCc3ccc(C(F)(F)F)cc3)nc2c1 [Compound 13]	melting point	212.5 to 213.3 °C
COc1ccccc1CSc1nc2cc(C(=O)NCC(C)(C)C)ccc2c(=O)[nH]1 [Compound 42]	melting point	230.2 to 232.1 °C
CC(C)(C)CNC(=O)c1ccc2c(=O)[nH]c(SCc3ccc(Cl)cc3)nc2c1 [Compound 36]	melting point	220 to 222 °C

Could you now consider this next molecule?
Entry CC(C)(C)CNC(=O)c1ccc2c(=O)[nH]c(SCc3ccccc3Cl)nc2c1 [Compound 34] — recorded melting point = 238.4 to 239.8 °C

* * *

- Target system: Human recombinant sEH (Homo sapiens, UniProt P34913)
- Experiment description: sEH cell-free fluorescence-based assay (PHOME substrate)
- Measurement conditions: cell-free assay, human sEH; means ± SEM, n = 3
The compounds listed here are annotated with their IC50.

Compound	IC50
O=C(c1ccc2c(=O)[nH]c(SCc3ccccc3Cl)nc2c1)N1CCNCC1 [Compound 48]	> 10 µM
O=C(c1ccc2c(=O)[nH]c(SCc3ccccc3Cl)nc2c1)N1CCCCC1 [Compound 49]	> 10 µM

Entry CC(C)(C)CNC(=O)c1ccc2c(=O)[nH]c(SCc3cccc(C(=O)O)c3)nc2c1 [Compound 21] — recorded IC50 = ~10 µM

Entry CC(C)(C)CNC(=O)c1ccc2c(=O)[nH]c(NCc3ccccc3Cl)nc2c1 [Compound 55] — recorded IC50 = > 10 µM

Entry CC(C)NC(=O)c1ccc2c(=O)n(-c3ccccc3)c(SCc3ccc(C(F)(F)F)cc3)nc2c1 [Compound 13] — recorded IC50 = ~10 µM
